Tested on: A549/ATCC NSCLC
Assay: NCI-60 one-dose screen, 48 h
Conditions: 10 µM unless noted
This is part of a sample that, as a whole, favours compounds with a hit. Of some 83,000 tested, about 20% had one in any assay. Activity calls are given as the source filed them. Rule for the calls: active = growth percent below 10; inactive = the rest.
The reply should be one of these categories: 1 (yes) (active), 0 (no) (inactive)

In this assay, the call recorded for `O=C(Nc1cccc(-n2cc(-c3ccncc3)c(-c3ccc(Cl)c(O)c3)n2)c1)c1ccc(N2CCOCC2)c(C(F)(F)F)c1` was what?
0 (no)

Can you look up the reported call for `Nc1nc(Nc2cc(Cl)cc(Cl)c2)nn1S(=O)(=O)c1ccc2ccccc2c1` for me?
0 (no)

What did the test return for `COc1ccc(-c2c(-c3cc(OC)c4c(c3)OCO4)noc2N)cc1` ?
0 (no)

Please let me know the test result on file for `COc1cc(-c2nn(-c3cccc(NC(=O)Nc4cc(C(F)(F)F)cc(C(F)(F)F)c4)c3)cc2-c2ccncc2)ccc1Cl` .
1 (yes)

Short answer needed: outcome of this test for `O=C1c2c(c3c4ccccc4n(CCCCCCBr)c3c3[nH]c4ccccc4c23)C(=O)N1O` ?
1 (yes)

Status in this test for `COc1cc(/C(C#N)=C/c2ccc3c(c2OC)OCO3)cc2c1OCO2` ?
0 (no)

Outcome logged for Cc1csc(NC(c2ccccc2)c2c(C)nc3ccccn23)n1 (stereo unspecified) in this assay:
0 (no)

Test call, this molecule: `O=C(N/N=C/C=C\c1ccccc1)C(=O)N/N=C/C=C/c1ccccc1`
0 (no)

In this assay, the call recorded for `CCCCCCCCCCCC(=O)NCCC[N+](C)(C)CC(=O)[O-]` was what?
0 (no)

Any idea what this test logged for `CCCOC(=O)n1cccc1` ?
0 (no)

Each molecule tested received a call. Report the one for `CC(C)(C)Nc1c(-c2cccs2)nc2ncccn12` .
0 (no)

Each molecule tested received a call. Report the one for `CC(C)OC(=O)N1CCOCC1` .
0 (no)

Status in this test for `O=[N+]([O-])c1cccc(-c2nc3sccn3c2-c2ccnc(NCCCNS(=O)(=O)c3ccc(C(F)(F)F)cc3)n2)c1` ?
0 (no)

How did this test come out for `C=C1c2nc3ccccc3n2C=C(c2ccc(Cl)cc2)N1Cc1ccccc1` ?
0 (no)

What call does the record list for `COc1ccc(S(=O)(=O)n2cc(C(=O)C(=O)Nc3ccncc3)c3ccccc32)cc1F` ?
0 (no)

Name the outcome recorded for `Clc1ccc(-c2nc3ccccc3s2)cc1Cl` in the assay.
0 (no)

Tell me the assay call for `O=C(/C=C/c1c[nH]c2ccccc12)c1ccc(O)c(CN2CCN(c3ccc(F)cc3)CC2)c1` please.
0 (no)

# lookup: test call for `Cc1ccc(S(=O)(=O)c2nc(-c3ccccc3)oc2S(C)(=O)=O)cc1`
0 (no)

Entry `COc1ccc(C2=C(c3cc(OC)c(OC)c(OC)c3)C(=O)CC2)cc1` : call = ?
0 (no)

Which outcome did this test record for the molecule `O=C(Nc1cccc(-n2cc(-c3ccncc3)c(-c3ccc(Cl)c(O)c3)n2)c1)Nc1cc(C(F)(F)F)cc(C(F)(F)F)c1` ?
1 (yes)

Look up the recorded call for `COc1ccc(/C=C/c2c(C(C)=O)c(C)nc3ccccc23)cc1` in this test.
0 (no)

So what was the verdict on CCN1C(=O)N(CC)C2C1NN=c1s/c(=C\c3cccnc3)c(=O)n12 (stereo unspecified) in this test?
0 (no)

Short answer needed: outcome of this test for `Cc1cc(C2=NNC(=O)Cc3cc4c(cc32)OCCO4)cc(C)c1N` ?
0 (no)

Hello, I am checking results. What call was entered for `Cc1ccc(-c2cc3nc(C(Cl)Cl)nc(-c4ccccc4C)n3n2)cc1` ?
0 (no)

For this molecule, state the assay outcome: `COc1cccc(-c2cc3c(O)cc(C#N)cc3[nH]2)c1`
0 (no)

# outcome recorded in this test, key = `CCOC(=O)/C(C#N)=C1/C(=O)Nc2ccccc21`
0 (no)

====

System: OVCAR-4 ovarian
Experiment: NCI-60 one-dose screen, 48 h (100 = growth as untreated, 0 = no growth, -100 = all killed)
Conditions: 10 µM unless noted
Description: Growth inhibition of the OVCAR-4 human tumor cell line is measured as a screen for anti-cancer activity. Cells are grown in 96 well plates and exposed to the test compound for 48 hours. Compounds are tested at a single concentration, which is 10^-5 M for most compounds. The reported endpoint is percent growth (GI% or GIPRCNT), where numbers from 0 - 100% represent growth inhibition, and numbers from -100% - 0 represent cell death. For example, a value of 40 represents 60% growth inhibition. […]
About 83,000 compounds went through this panel and 20% of them were active in at least one assay; those are over-represented in the sample as a whole.
For each of the compounds below, state its growth.
Kindly answer with a numeric value in %, unit omitted.

// map `CC(C)(C)n1cc(-c2ccnc(NCCNS(=O)(=O)c3ccc(Cl)cc3)c2)c(-c2cccc(O)c2)n1` to recorded growth (system: OVCAR-4 ovarian)
53.5

// lookup growth | system=OVCAR-4 ovarian | key= NC(=S)N/N=C(/CCN1CCCC1)CC(C1=C(O)C2=CCCCC2OC1=O)c1ccccc1 (configuration not stated)
62.2

Please tell me: growth of `Cc1ccc2nc(Cl)cc(=O)n2c1` , system OVCAR-4 ovarian?
117

Short answer please: growth, OVCAR-4 ovarian, entry `Cc1ccc(S(=O)(=O)C2=C3C(=C(c4ccccc4)c4ccccc43)CN(S(=O)(=O)c3ccc(C)cc3)C2)cc1`
70.3

Short answer please: growth, OVCAR-4 ovarian, entry `NC(N)=N/N=C/c1ccc(-c2ccc(-c3cc(Cl)cc(Cl)c3)s2)cc1`
38.6

Query the reported growth for OVCAR-4 ovarian; item: `COc1ccc(Cn2cc3c(c2-c2cc(OC)c(OC)c(OC)c2)CCc2cnoc2-3)cc1`
22.6

Missing value: growth, OVCAR-4 ovarian, entry `O=[N+]([O-])c1cccc(-c2nc3sccn3c2-c2ccnc(NCCCNS(=O)(=O)c3ccc(C(F)(F)F)cc3)n2)c1` . Fill in?
15.2

====

Test system: HOP-92 NSCLC
Experiment: NCI-60 one-dose screen, 48 h (100 = growth as untreated, 0 = no growth, -100 = all killed)
Details: 10 µM unless noted
This is part of a sample that, as a whole, favours compounds with a hit. Of some 83,000 tested, about 20% had one in any assay.
Assign growth to each entry below.
Supply the numeric figure in %, leaving out any unit text.

Give its growth value. Item: `O=[N+]([O-])c1ccc(-c2cn(-c3ccccc3)c(-c3ccccc3)n2)cc1`
81.2

Give its growth value. Item: CCO/C=N/C1=C(C#N)C(c2ccc(Cl)cc2)c2c(c3ccccc3n(C)c2=O)O1 (stereo not drawn)
79.2

# get_value(readout='growth', item= `CC(C)(C)n1cc(-c2ccnc(NCCNS(=O)(=O)c3ccc(F)cc3)c2)c(-c2cccc(O)c2)n1` )
58.3

====

System: NCI-H522 lung
Experiment: NCI-60 one-dose screen, 48 h (100 = growth as untreated, 0 = no growth, -100 = all killed)
Conditions: 10 µM unless noted
About 83,000 compounds went through this panel and 20% of them were active in at least one assay; those are over-represented in the sample as a whole. Active and inactive are the calls of the source. Rule for the calls: active = growth percent below 10; inactive = the rest.
Parameter Measured: growth

Requested read-out growth, target or system NCI-H522 lung, entry O=C1C2(c3ccccc3)C(c3ccccc3)=C(c3ccccc3)C1(c1ccccc1)C1CC=CC12 (stereo not given)
71.3% (inactive)

Hello, I am looking for reported growth with NCI-H522 lung for `Nc1cc2c([nH]c[n+]2CC#CCCl)c(SCC#CCCl)n1` . Could you help?
-90.7% (active)

For NCI-H522 lung, provide growth of CN(C)c1ncnc2c1ccn2C1OC(CO)C(O)C1O (stereo not given) please.
90.9% (inactive)

Lab note: need growth for `CC(C)(C)OC(=O)NCCc1ccc(N=C=S)cc1` on NCI-H522 lung, anyone have it?
16.1% (inactive)

Give growth (NCI-H522 lung) of the following compound: `O=C1CCCCC1(c1ccccc1)c1ccccc1`
99% (inactive)

====

System: UACC-62 melanoma
Test: NCI-60 one-dose screen, 48 h
Conditions: 10 µM unless noted
The panel holds about 83,000 compounds, 20% with a hit somewhere; the sample as a whole holds those more often. Activity calls are given as the source filed them. The calls were made as follows: active = growth percent below 10; inactive = the rest.
Outcome field: choose from active, inactive

Which outcome was assigned to `COc1cc(-c2nn(-c3cccc(NC(=O)Nc4cccc(C(F)(F)F)c4)c3)cc2-c2ccncc2)ccc1Cl` in this test?
active

Outcome? `CC(C)(C)n1cc(-c2ccnc(NCCNS(=O)(=O)c3ccc(Cl)cc3)c2)c(-c2cccc(O)c2)n1`
inactive

State the result this test recorded for `COc1ccc(/C=C(\C#N)c2cc(OC)c3c(c2)OCO3)cc1` .
inactive

Give the logged outcome of this assay for the following molecule: `COc1cc(/C=C/C(=O)c2ccc(Nc3ncnc4cc(OC)c(OC)cc34)cc2)cc(OC)c1`
inactive

Could you kindly confirm the outcome this assay logged for `COc1cccc(CC(C)=C(c2ccc(OCCN(C)C)cc2)c2ccc(OCCN(C)C)cc2)c1` ?
active

Please indicate how the test categorized `Cc1cc(C(C)(C)C)ccc1S` .
inactive

For `C=C(C)[C@@H]1C[C@@H]2Cc3cc(Cl)ccc3N1O2` , what call appears in the results of this test?
inactive

Recorded test call requested for `C=C1C(=O)O[C@H]2[C@H]1CC/C(Cn1cc(CNC(=O)c3cc4ccccc4[nH]3)nn1)=C\CC[C@@]1(C)O[C@@H]21`
inactive

Outcome? `Cc1ccc(S(=O)(=O)n2cc(C(=O)C(=O)Nc3ccncc3)c3ccccc32)cc1`
inactive

Tell me the assay call for `COc1ccc(Cn2cc3c(c2-c2cc(OC)c(OC)c(OC)c2)CCc2cnoc2-3)cc1` please.
inactive

So what was the verdict on `COc1ccc(C(=O)c2cc(OC)c(OC)c(OC)c2OC)cc1O` in this test?
inactive

Lab log entry: `COc1cc(C(=O)/C=C/c2c(C)n([O-])c3ccc(C(F)(F)F)cc3[n+]2=O)cc(OC)c1OC` — outcome as called in the assay?
inactive

I would be grateful if you could indicate the recorded call for `Cc1ccc2nc(Cl)cc(=O)n2c1` .
inactive

What outcome does the record of this test show for `Nc1nnc(-c2ccc3ccccc3c2O)o1` ?
inactive

I'd appreciate the recorded outcome for CCCCC(CC)OC(=O)C(Br)CC (centres undefined) from this test.
inactive

Please state the recorded outcome for this molecule: `COc1ccc(-c2ccc(-c3ccc(-c4ccc(C(=N)N)cc4)s3)s2)cc1OC`
inactive

Look up the recorded call for `O=[N+]([O-])c1cccc(-c2nc3sccn3c2-c2ccnc(NCCCNS(=O)(=O)c3ccc(C(F)(F)F)cc3)n2)c1` in this test.
active

Short answer needed: outcome of this test for C/C=C(\C)C(C(=O)NC1CCCCC1)N(C(=O)C1CCc2cc(F)ccc2O1)c1ccc(Cl)cc1 (centres undefined) ?
inactive

What call does the record list for `N=C(N)c1ccc(-c2ccc(-c3ccc(-c4cccs4)s3)s2)cc1` ?
inactive

Hey, what did the test say about `c1ccc(-c2nnc(-c3ccccn3)s2)nc1` ?
inactive

Please let me know the test result on file for `COc1ccc2c(c1)[nH]c(=O)c1c3cc(C)c(C)cc3cn21` .
inactive

Hi team, can someone confirm the assay call for `FC(F)(F)c1cccc(-c2cn3c(ccc4ccccc43)n2)c1` ?
inactive

// outcome(item) with item = `ClC(Cl)c1nc(-c2cccnc2)n2nc(-c3ccccc3)cc2n1`
inactive

Identify the outcome logged in this assay for the molecule shown: `CCOC(=O)c1cc(C(=O)c2cc(OC)c(OC)c(OC)c2)n2c1ccc1ccccc12`
inactive
